Values from ChEMBL document CHEMBL1124946

System: Staphylococcus aureus
Assay: In vitro minimal inhibitory concentration (MIC) in brain-heart infusion broth in the presence of hog liver esterase(1:1.5) in Staphylococcus aureus 400
Type: functional
MIC listing for selected compounds.

# compound, MIC
data = [
    ("C[C@H]1C(=O)[C@@H]2[C@H](NC(=O)OCc3ccccc3)C(=O)N2[C@H]1C(=O)OCOC(=O)C(C)(C)C", "> 200 µg/mL"),
    ("CC(=O)OC1[C@H](C)C(C(=O)OCOC(=O)C(C)(C)C)N2C(=O)[C@H](NC(=O)COc3ccccc3)[C@@H]12 (some centres undefined)", "> 200 µg/mL"),
    ("C[C@@H](O)[C@H]1C(=O)N2C(C(=O)O)=C(SCCN)C[C@H]12", "< 0.025 µg/mL"),
]

MIC measured on CCN1CCN(C(=O)N[C@@H](C(=O)N[C@@H]2C(=O)N3[C@@H]2C(O)[C@H](C)[C@@H]3C(=O)OCOC(=O)C(C)(C)C)c2ccccc2)C(=O)C1=O (some centres undefined) = > 200 µg/mL
